Source listed as patent US20220378931A1.

ASSAY_SYSTEM: T1, human insulin receptor isoform B with C-terminal C9 tag (human, UniProt P06213 28-1382)
T1 construct: membranes of stably transfected HEK293 cells; also called hIR-B; human IR-B
TEST_DETAILS: 125I-insulin competition SPA, hIR-B membranes, 0.1% BSA
PROPERTY_MEASURED: pKi
Friendly reminder that pKi comes from taking -log10 of the concentration in mol/L.

BINDER: INS Analog 17 (other, single-chain insulin B-L2-A-L1-VHH fusion; also called Ex. 17) FVSQHLCGSHLVEALRLVCGERGFFYTPKTGGGGGGGIVEQCCHSICSLYQLENYCGPGPAPGPAPGPAPGPAPGPAPGPAPGPAPGPAEVQLLESGGGLVQPGGSLRLSCAASGRYIDETAVAWFRQAPGKEREFVAGIGGGVDITYYADSVKGRFTISRDNSKNTLYLQMNSLRPEDTAVYYCAARPGRPLITSKVADLYPYWGQGTLVTVSSPP
pKi: 6.96
//
BINDER: INS Analog 18 (other, single-chain insulin B-L2-A-L1-VHH fusion; L1 is (PGPA)8; also called Ex. 18) FVSQHLCGSHLVEALRLVCGERGFHYTPKTGGGGGGGIVEQCCHSICSLYQLENYCGPGPAPGPAPGPAPGPAPGPAPGPAPGPAPGPAEVQLLESGGGLVQPGGSLRLSCAASGRYIDETAVAWFRQAPGKEREFVAGIGGGVDITYYADSVKGRFTISRDNSKNTLYLQMNSLRPEDTAVYYCAARPGRPLITSKVADLYPYWGQGTLVTVSSPP
pKi: 6.52

// moving on: another record for pKi
Enquiry: Looking for the measured pKi of INS Analog 2 (other, single-chain insulin B-L2-A-L1-VHH fusion; also called Ex. 2) FVDQHLCGSHLVEALYLVCGERGFFYTPKTGGGGGGGIVEQCCTSICSLYQLENYCGPGPAPGPAPGPAPGPAPGPAPGPAPGPAPGPAEVQLLESGGGLVQPGGSLRLSCAASGRTVSSTAVAWFRQAPGKEREFVAGIGGSVDITYYADSVKGRFTISRDNSKNTLYLQMNSLRPEDTAVYYCAVRPGRPLITSRDANLYDYWGQGTLVTVSS , can you help?
Return: 7.25
